Tested on: Bentgrass
ASSAY_NOTES: Turf grass selectivity, greenhouse pot test
Assay type: in vivo, Agrostris palustris
STUDY_CONDITIONS: 25 g ai/ha, 4 weeks
Source text: Turf mats of Zoysia grass, bentgrass, Kentucky bluegrass, or perennial rye grass known as cool season turfgrass or western grass were purchased and cut into a piece having 10 cm×20 cm size. Then, each piece was transplanted in a rectangular plastic pot (surface area of 300 cm^2) in which sandy loam and mixed top soil (Boo-Nong Top Soil No. 3, for horticultural use) are filled in 1:1 ratio. […]
# Lookup of reported phytotoxicity (visual assessment 0-10) keyed by entry

{"columns": ["COMPOUND", "phytotoxicity (visual assessment 0-10)"],
 "data": [
  ["COc1nc(C)nc(NC(=O)NS(=O)(=O)c2cscc2C2(CF)OCCO2)n1 [Example 2]", 10],
  ["Cc1cc(C)nc(NC(=O)NS(=O)(=O)c2ccccc2C(O)C(C)F)n1 (stereo not shown) [Example 1]", 0],
  ["COc1cc(OC)nc(NC(=O)NS(=O)(=O)c2ncccc2C(F)(F)F)n1 [Control chemical No. 2, Flazasulfuron, reference compound]", 10],
  ["CCOC(=O)c1cnn(C)c1S(=O)(=O)NC(=O)Nc1nc(OC)cc(OC)n1 [Control chemical No. 1, Pyrazosulfuron ethyl, reference compound]", 0]
]}

====

System: Bentgrass
ASSAY_NOTES: Turf grass selectivity, greenhouse pot test
Format: in vivo, Agrostris palustris
STUDY_CONDITIONS: 400 g ai/ha, 4 weeks
# Lookup of reported phytotoxicity (visual assessment 0-10) keyed by entry

{"columns": ["COMPOUND", "phytotoxicity (visual assessment 0-10)"],
 "data": [
  ["CCOC(=O)c1cnn(C)c1S(=O)(=O)NC(=O)Nc1nc(OC)cc(OC)n1 [Control chemical No. 1, Pyrazosulfuron ethyl, reference compound]", 1],
  ["Cc1cc(C)nc(NC(=O)NS(=O)(=O)c2ccccc2C(O)C(C)F)n1 (stereo not shown)", 2],
  ["COc1nc(C)nc(NC(=O)NS(=O)(=O)c2cscc2C2(CF)OCCO2)n1", 10],
  ["COc1cc(OC)nc(NC(=O)NS(=O)(=O)c2ncccc2C(F)(F)F)n1 [Control chemical No. 2, Flazasulfuron, reference compound]", 10]
]}

====

# Lookup of reported phytotoxicity (visual assessment 0-10) keyed by entry
Tested on: Kentucky bluegrass
ASSAY_NOTES: Turf grass selectivity, greenhouse pot test
Format: in vivo, Poa pratensis
STUDY_CONDITIONS: 6 g ai/ha, 2 weeks
QUANTITY_MEASURED: phytotoxicity (visual assessment 0-10)

{"columns": ["COMPOUND", "EXPERIMENTAL_RESULT"],
 "data": [
  ["CCOC(=O)c1cnn(C)c1S(=O)(=O)NC(=O)Nc1nc(OC)cc(OC)n1 [Control chemical No. 1, Pyrazosulfuron ethyl, reference compound]", 0],
  ["Cc1cc(C)nc(NC(=O)NS(=O)(=O)c2ccccc2C(O)C(C)F)n1 (stereo not shown) [Example 1]", 0],
  ["COc1nc(C)nc(NC(=O)NS(=O)(=O)c2cscc2C2(CF)OCCO2)n1 [Example 2]", 5],
  ["COc1cc(OC)nc(NC(=O)NS(=O)(=O)c2ncccc2C(F)(F)F)n1 [Control chemical No. 2, Flazasulfuron, reference compound]", 10]
]}

====

Tested on: Perennial rye grass
ASSAY_NOTES: Turf grass selectivity, greenhouse pot test
Format: in vivo
STUDY_CONDITIONS: 50 g ai/ha, 2 weeks
From the text: Turf mats of Zoysia grass, bentgrass, Kentucky bluegrass, or perennial rye grass known as cool season turfgrass or western grass were purchased and cut into a piece having 10 cm×20 cm size. Then, each piece was transplanted in a rectangular plastic pot (surface area of 300 cm^2) in which sandy loam and mixed top soil (Boo-Nong Top Soil No. 3, for horticultural use) are filled in 1:1 ratio. […]

{"columns": ["COMPOUND", "phytotoxicity (visual assessment 0-10)"],
 "data": [
  ["COc1nc(C)nc(NC(=O)NS(=O)(=O)c2cscc2C2(CF)OCCO2)n1", 10],
  ["Cc1cc(C)nc(NC(=O)NS(=O)(=O)c2ccccc2C(O)C(C)F)n1 (stereo not shown)", 0],
  ["CCOC(=O)c1cnn(C)c1S(=O)(=O)NC(=O)Nc1nc(OC)cc(OC)n1 [Control chemical No. 1, Pyrazosulfuron ethyl, reference compound]", 0],
  ["COc1cc(OC)nc(NC(=O)NS(=O)(=O)c2ncccc2C(F)(F)F)n1 [Control chemical No. 2, Flazasulfuron, reference compound]", 10]
]}

Origin of values: patent US20100035755A1
